# Target: Estrogen receptor (Homo sapiens, UniProt Q92731+P03372)
# Test protocol: Displacement of [3H]estradiol from estrogen receptor in squirrel monkey
# Assay type: protein assay
Measurement type: EC50 (µg/mL)
Give bare numbers, in µg/mL.

Reference set (3 entries):
CC[C@H]1CC[C@H]2[C@@H]3CCc4cc(O)ccc4[C@H]3[C@@H](O)C[C@]12C
22
CC[C@H]1CC[C@H]2[C@@H]3CCc4cc(O)ccc4[C@H]3CC[C@]12C (stereo in doubt; 8b)
60
C#C[C@]1(O)CC[C@H]2[C@@H]3[C@H](O)Cc4cc(O)ccc4[C@H]3CC[C@@]21C
52

We next turn to a different compound, shown below.
Problem: Consider the compound C#C[C@]1(O)CC[C@H]2[C@@H]3CCc4cc(O)ccc4[C@H]3[C@@H](O)C[C@@]21C . State its measured EC50.
Result: 150

* * *

Assignment: determine reported Estrogenic potency for the given compounds.
# Target: Estrogen receptor (Rattus norvegicus) (UniProt P06211+Q62986)

C[C@]12CC[C@@H]3c4ccc(O)cc4CC[C@H]3[C@@H]1CC/C2=N\N
1.6
CC(F)(F)[C@H]1CC[C@H]2[C@@H]3CCc4cc(O)ccc4[C@H]3CC[C@]12C
0.09
C[C@]12CC[C@@H]3c4ccc(O)cc4CC[C@H]3[C@@H]1CC[C@@H]2C#N
0.05
CC[C@H]1CC[C@H]2[C@@H]3CCc4cc(O)ccc4[C@H]3CC[C@]12C (stereo in doubt; 8i)
0.16
COc1ccc2c(c1)CC[C@@H]1[C@@H]2CC[C@]2(C)[C@@H](c3ccccc3)CC[C@@H]12
< 0.1
C[C@]12CC[C@@H]3c4ccc(O)cc4CC[C@H]3[C@@H]1CC/C2=N\Nc1ccccn1
0.1
C[C@]12CC[C@@H]3c4ccc(O)cc4CC[C@H]3[C@@H]1CC[C@@H]2CO
0.03

Problem: Consider the compound C[C@]12CC[C@@H]3c4ccc(O)cc4CC[C@H]3[C@@H]1CCC2=S . State its measured Estrogenic potency.
Result: 2.4

* * *

Entries below carry reported Uterotrophic effect on Estrogen receptor (Rattus norvegicus) (UniProt P06211+Q62986).
Numbers only.

C#C[C@]1(O)CC[C@H]2[C@@H]3[C@H](O)Cc4cc(O)ccc4[C@H]3CC[C@@]21C
10
CC[C@H]1CC[C@H]2[C@@H]3CCc4cc(O)ccc4[C@H]3CC[C@]12C (stereo in doubt; 8b)
11
C#C[C@]1(O)CC[C@H]2[C@@H]3CCc4cc(O)ccc4[C@H]3[C@@H](O)C[C@@]21C
19

Problem: Consider the compound CC[C@H]1CC[C@H]2[C@@H]3CCc4cc(O)ccc4[C@H]3[C@@H](O)C[C@]12C . State its measured Uterotrophic effect.
Result: 2

* * *

# Target: Estrogen receptor (Homo sapiens, UniProt Q92731+P03372)
# Test protocol: Displacement of [3H]estradiol from estrogen receptor in immature rabbit
# Assay type: protein assay, Oryctolagus cuniculus
# Condition info: target entry is the homologue from another species
Assignment: determine reported EC50 for the given compounds.
Give bare numbers, in µg/mL.

C#C[C@]1(O)CC[C@H]2[C@@H]3CCc4cc(O)ccc4[C@H]3[C@@H](O)C[C@@]21C
8
C=C1CC[C@H]2[C@@H]3CCc4cc(O)ccc4[C@H]3CC[C@]12C
1.5
C#C[C@]1(O)CC[C@H]2[C@@H]3[C@H](O)Cc4cc(O)ccc4[C@H]3CC[C@@]21C
36

We next turn to a different compound, shown below.
Problem: Give reported EC50 for CC[C@H]1CC[C@H]2[C@@H]3CCc4cc(O)ccc4[C@H]3CC[C@]12C (stereo in doubt; 8b) (Estrogen receptor (Homo sapiens, UniProt Q92731+P03372))
Result: 11
